# test_details: Dynamic solubility in water, SGF, FaSSIF and FeSSIF
# Type: physicochemical
# condition_parameters: 37 °C, pH 1.8, simulated gastric fluid, thermodynamic from solid
experimental_endpoint: solubility at 2 h (µg/mL)
Quick reminder: number only, in µg/mL, skip the unit.

Q: Which measured solubility at 2 h value corresponds to O=C(Nc1ccc(F)cc1)C1(C(=O)Nc2ccc(Oc3ccnc4cc(OCCCN5CCOCC5)c5c(c34)OCCO5)c(F)c2)CC1 [Free state] ?
Ans: 5800

###

# test_details: Dynamic solubility in water, SGF, FaSSIF and FeSSIF
# Assay type: physicochemical
# condition_parameters: 37 °C, pH 1.8, simulated gastric fluid, thermodynamic from solid
experimental_endpoint: solubility at 24 h (µg/mL)
Quick reminder: number only, in µg/mL, skip the unit.

Q: Which measured solubility at 24 h value corresponds to O=C(Nc1ccc(F)cc1)C1(C(=O)Nc2ccc(Oc3ccnc4cc(OCCCN5CCOCC5)c5c(c34)OCCO5)c(F)c2)CC1 [Free state] ?
Ans: 5700
